biological target: Dvl PDZ domain (Dvl1 PDZ) (Mus musculus)
Sequence (P51141 248-337): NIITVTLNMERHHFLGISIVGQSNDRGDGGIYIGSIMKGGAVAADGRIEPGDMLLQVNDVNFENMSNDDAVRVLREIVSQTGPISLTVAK
Reported pKi values follow for various compounds
Lab note — pKi values are minus log10 of concentrations in M.

CC1=C(CC(=O)O)c2cc(F)ccc2/C1=C\c1ccc(S(C)(=O)=O)cc1 [sulindac sulfone]	5.10

In the following, a different compound is considered.
Given the compound CC1=C(CC(=O)O)c2cc(F)ccc2/C1=C\c1ccc([S@@+](C)[O-])cc1 [sulindac] , what is its reported pKi? 4.97
